Data credit: paper PMC7429351

# System under test: human CaM (Homo sapiens)
# Construct: properties of the whole protein can be explored with differential scanning calorimetry
# Measurement protocol: Isothermal titration calorimetry, ligand titrated with human CaCaM
# Conditions: ITC, 25°C, 1 mmol/L CaCl2, one set of sites model

Compound | Kd / nM
OC(CNCC1CCCO1)Cn1c2ccc(Cl)cc2c2cc(Cl)ccc21 (stereo not shown) | 2500
